The reported measurements were obtained from patent US8673889B2.

Molecular target: BLT2 (Homo sapiens)
Sequence (Q9NPC1 1-358): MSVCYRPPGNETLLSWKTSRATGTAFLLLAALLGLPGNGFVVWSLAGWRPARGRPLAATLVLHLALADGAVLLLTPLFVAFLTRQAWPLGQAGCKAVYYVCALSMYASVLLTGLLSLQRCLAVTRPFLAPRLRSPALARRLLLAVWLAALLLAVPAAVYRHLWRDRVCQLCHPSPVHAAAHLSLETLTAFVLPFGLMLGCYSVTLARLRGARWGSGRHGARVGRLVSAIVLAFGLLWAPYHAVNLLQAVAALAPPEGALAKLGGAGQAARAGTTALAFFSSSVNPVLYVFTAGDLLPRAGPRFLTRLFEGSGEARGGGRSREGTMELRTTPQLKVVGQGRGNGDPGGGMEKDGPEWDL
Assay: Evaluation of BLT2 agonistic activity by monitoring the variation of intracellular Ca2+ concentration
Assay type: cell-based
Design: expressed in transfected cells
reported_endpoint: pIC50
pIC50 field: float, defined as -log10 of concentration (mol/L).

Consider the compound shown here: O=C(Cc1ccccc1)NCc1ccc(-c2ccccc2C(=O)O)cc1 What is its recorded pIC50?
7.35
